# Read-out: Apoptosis regulator Bcl-2 (Homo sapiens) (UniProt P10415)
# Sequence (P10415 whole entry, looked up): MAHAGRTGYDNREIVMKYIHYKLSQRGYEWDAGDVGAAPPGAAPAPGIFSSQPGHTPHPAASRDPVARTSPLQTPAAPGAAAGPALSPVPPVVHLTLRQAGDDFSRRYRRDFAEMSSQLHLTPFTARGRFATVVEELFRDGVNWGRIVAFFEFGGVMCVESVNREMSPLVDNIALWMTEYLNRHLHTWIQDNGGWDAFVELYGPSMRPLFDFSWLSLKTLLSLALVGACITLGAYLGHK
# assay.text: LTEA_HepaRG_BCL2: Life Technologies and Expression Analysis (LTEA) Assay for Bcl-2 gene using HepaRG (AID 2283475);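 also: BCL2 transcript by TaqMan qRT-PCR normalised to ACTB GAPDH and POLR2A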
# settings: mRNA level, 48 h; actives raise or lower the signal
The source made the active and inactive calls. The calls were made as follows: active = hit-call score of the fitted dose curve at least 0.9, where 1 is the maximum; inactive = score below 0.9.
reported.endpoint: AC50

Worked cases, answers included:
CN(Cc1cnc2nc(N)nc(N)c2n1)c1ccc(C(=O)N[C@@H](CCC(=O)O)C(=O)O)cc1 = inactive
O=C1NS(=O)(=O)c2ccccc21 = inactive
CCCCc1oc2ccccc2c1C(=O)c1cc(I)c(OCCN(CC)CC)c(I)c1 = 59.5 µM (active)
CCC(C)c1ccccc1O (stereo not given) = inactive
O=C(CCCN1CCC(O)(c2ccc(Cl)cc2)CC1)c1ccc(F)cc1 = 81.3 µM (active)
Cc1[nH]nc2c1N=C(c1ccccc1Cl)c1cc([N+](=O)[O-])ccc1N2 = 8.98 µM (active)
CCCCC=O = inactive
N=C(N)c1ccc(OCCCCCOc2ccc(C(=N)N)cc2)cc1 = 73.6 µM (active)

input: Please give the measured AC50 for this compound: O=C(c1ccccc1)c1ccccc1
output: inactive

input: AC50 for CC(=O)Nc1ccc(O)cc1 ?
output: inactive

---

# assay.text: CCTE_Mundy_HCI_Cortical_Synap_Neur_Matur_NeuronCount: CCTE's Synaptogenesis and Neurite Maturation Assay in rat cortical cells for Neuron Count, Mundy Lab (AID 2284242)
Results filed as inconclusive are left out. Active and inactive are the calls of the source. Rule for the calls: active = hit-call score of the fitted dose curve at least 0.9, where 1 is the maximum; inconclusive = response in the unintended direction; inactive = score below 0.9.
Just give me one of these, please: active, inactive

input: Test call, this compound: CC(C)c1c(C(=O)Nc2ccccc2)c(-c2ccccc2)c(-c2ccc(F)cc2)n1CC[C@@H](O)C[C@@H](O)CC(=O)O
output: active

input: Dear colleague, could you share the recorded outcome for O=C1NS(=O)(=O)c2ccccc21 when you have a moment?
output: inactive

input: What outcome does the record of this test show for Nc1ccn([C@@H]2O[C@H](CO)[C@@H](O)C2O)c(=O)n1 (some centres undefined) ?
output: active

input: Hi, sorry to bother you, what did the test record for O=C(CCCN1CCC(O)(c2ccc(Cl)cc2)CC1)c1ccc(F)cc1 ?
output: active

---

# assay.text: ATG_RORE_CIS: Attagene CIS-FACTORIAL HepG2 Assay for human RAR-related Orphan Receptor Element (RORE) (AID 2282959)
# settings: HepG2 Attagene cis-factorial RORE reporter, mRNA; actives raise or lower the signal
The source made the active and inactive calls. How the source made its calls: active means hit-call score of the fitted dose curve at least 0.9, where 1 is the maximum; inactive means score below 0.9.
reported.endpoint: outcome

Please review the entries below; each comes with its answer.
FC(OC(F)(F)C(F)(F)C(F)(F)F)C(F)(F)F (configuration not stated) = inactive
Cc1cc(Cc2cc(C)cc(C(C)(C)C)c2O)c(O)c(C(C)(C)C)c1 = inactive
COC(O)c1ccccc1 (configuration not stated) = inactive
CC(C)(C)c1ccc(CCC=O)cc1 = inactive
FCOC(C(F)(F)F)C(F)(F)F = inactive

input: Quick one: outcome for CN(C)CCOC(c1ccccc1)c1ccccc1 ?
output: inactive

input: May I ask what outcome has been recorded for Cc1cncc(C)c1 ?
output: inactive

input: Recorded outcome for COCN(COC)c1nc(N(COC)COC)nc(N(COC)COC)n1 , please?
output: inactive

input: For CC(C)C=O , what is its reported outcome?
output: inactive

input: // returns reported outcome for input CCCCc1oc2ccccc2c1C(=O)c1cc(I)c(OCCN(CC)CC)c(I)c1
output: inactive

input: # get_value(readout='outcome', item= CCCCCC(C)OC(=O)COc1ccc(Cl)c2cccnc12 (configuration not stated) )
output: inactive

input: # lookup: outcome of Oc1cccc2c(O)cccc12
output: inactive

input: I would be grateful if you could share the reported outcome for C=COC(=O)C(C)(C)CCCCCC .
output: inactive

input: Could you tell me which outcome is on file for O=C1Cc2ccccc2N1c1c(Cl)cccc1Cl ?
output: inactive

input: GET /values?readout=outcome&item= COc1cccc(O)c1
output: inactive

input: Need outcome, item NCc1cccc(CN)c1
output: inactive

input: Could you share which outcome value was measured for CCCCCCCC(OC)OC ?
output: inactive

input: Record request: outcome value, item CCCCCCCCCCCC[N+](C)(C)Cc1ccccc1
output: inactive

input: outcome for CCc1cccc(CC)c1N(COC)C(=O)CS(=O)(=O)O ?
output: inactive

input: Would you mind telling me what outcome value was observed for c1cc2cccc3c4cccc5cccc(c(c1)c23)c54 ?
output: inactive

input: Look at this compound and give its reported outcome. COc1cc([N+](=O)[O-])ccc1N
output: inactive

input: What value of measured outcome is listed for CC(C)c1c(C(=O)Nc2ccccc2)c(-c2ccccc2)c(-c2ccc(F)cc2)n1CC[C@@H](O)C[C@@H](O)CC(=O)O ?
output: inactive

input: Item COC(=O)CC(C(C)=O)C(=O)OC (configuration not stated) has what recorded outcome?
output: inactive

Just for reference, PubChem BioAssay (EPA / NIEHS) is where these values come from.
